Each record here notes measured viability decrease.
# Assay Summary: growth inhibition of GSK3B-pretreated HCT116 cells – cell-based, CellTiter-Glo, 0.2 to 20 µM (AID 1117336)
# Condition Summary: HCT116 viability after GSK3B inhibitor, at 20 µM, active compounds read high
A number alone suffices; assume %.

Compound: O=C(Cn1ccnc1[N+](=O)[O-])NCCO
Measured Endpoint: viability decrease
Unit: %
Endpoint Value: -1.8

Compound: COc1cc2c(N3CCN(C(=O)Nc4ccc(OC(C)C)cc4)CC3)ncnc2cc1OCCCN1CCCCC1
Measured Endpoint: viability decrease
Unit: %
Endpoint Value: 75.1

Compound: COc1ccc(C2CNC(=O)C2)cc1OC1CCCC1 (configuration not stated)
Measured Endpoint: viability decrease
Unit: %
Endpoint Value: 23.9

Compound: O=NN(CCCl)C(=O)NCCCl
Measured Endpoint: viability decrease
Unit: %
Endpoint Value: -5.7

Compound: COc1ccc(CCN2CCC(Nc3nc4ccccc4n3Cc3ccc(F)cc3)CC2)cc1
Measured Endpoint: viability decrease
Unit: %
Endpoint Value: 108

Compound: NS(=O)(=O)c1cc2c(cc1Cl)NC(C(Cl)Cl)NS2(=O)=O (configuration not stated)
Measured Endpoint: viability decrease
Unit: %
Endpoint Value: 13.9

Compound: O=C1C(=O)c2ccccc2C(O)=C1C1CCC(c2ccc(Cl)cc2)CC1 (configuration not stated)
Measured Endpoint: viability decrease
Unit: %
Endpoint Value: 96.3

Compound: CC(C)(C#N)c1cc(Cn2cncn2)cc(C(C)(C)C#N)c1
Measured Endpoint: viability decrease
Unit: %
Endpoint Value: -0.4

Ask | Identify the reported viability decrease for the following entry. NC[C@H](O)c1ccc(O)c(O)c1
Reply | 31.8

Ask | Identify the reported viability decrease for the following entry. CCCCCN(CCCCC)C(=O)C(CCC(=O)O)NC(=O)c1ccc(Cl)c(Cl)c1 (configuration not stated)
Reply | -12.2

Ask | Identify the reported viability decrease for the following entry. COc1ccc(C(=O)c2ccccc2)c(O)c1
Reply | -5.25

Ask | Identify the reported viability decrease for the following entry. NC(Cc1ccc(Cl)cc1)C(=O)O (configuration not stated)
Reply | -0.7
